Test: Antiglycation activity assessed as inhibition of glucose-mediated advanced glycation end product formation after 30 hrs by fluorescence spectrophotometry in presence of bovine serum albumin
Format: physicochemical
readout label: IC50

- O=C(O)c1ccc(N2C(=O)[C@@H]3[C@@H](ON(c4ccccc4)[C@H]3c3ccccc3Cl)C2=O)cc1 (relative stereo): 127 µM

Task item: Identify measured IC50 corresponding to Cc1ccc(N2C(=O)[C@H]3[C@@H](c4ccccc4O)N(c4ccccc4)O[C@H]3C2=O)cc1 (relative stereo)
Reply: 18.8 µM

Task item: Identify measured IC50 corresponding to `Cc1ccc(N2C(=O)[C@@H]3[C@@H](ON(c4ccccc4)[C@H]3c3ccccc3O)C2=O)cc1`
Reply: 75 µM

Task item: Identify measured IC50 corresponding to O=C(O)c1ccc(N2C(=O)[C@H]3[C@@H](c4ccccc4O)N(c4ccccc4)O[C@H]3C2=O)cc1 (relative stereo)
Reply: 24.4 µM

Task item: Identify measured IC50 corresponding to O=C1[C@H]2[C@@H](c3ccccc3Cl)N(c3ccccc3)O[C@H]2C(=O)N1c1ccccc1 (relative stereo)
Reply: 7.4 µM

Task item: Identify measured IC50 corresponding to Cc1ccc(N2C(=O)[C@@H]3[C@@H](ON(c4ccccc4)[C@H]3c3ccccc3Cl)C2=O)cc1 (relative stereo)
Reply: 23.9 µM

Task item: Identify measured IC50 corresponding to `N=C(N)NN`
Reply: 40.5 µM

Task item: Identify measured IC50 corresponding to O=C1[C@H]2[C@@H](c3ccccc3O)N(c3ccccc3)O[C@H]2C(=O)N1c1ccccc1 (relative stereo)
Reply: 25.9 µM

Data credit: ChEMBL document CHEMBL2321732
